# TEST_METHOD_NOTES: Pharmacokinetics from liquid (wet) saliva collected with Salivette (sMPA, sMPAG)
# Format: in vivo, human
# CONDITIONS_USED: human, unstimulated, Salivette; wet saliva; 0.5 h post-dose; n = 20; mean ± SD; read-out: C0.5 concentration
# Description: The AUC0–4, Tmax, and Cmax parameters were calculated using the R (version 4.5.1) package software (R Core Team, 2025), supported by RStudio (version 2025.05.1+513) from Posit PBC software (Boston, MA, USA). […] The vMPA and vMPAG capillary blood levels were corrected using formulas validated in our department (partially published by Kocur et al.) and expressed as estimated capillary plasma concentrations. […]
ASSAY_READOUT: concentration at 0.5 h (ng/mL)
Numbers only, in ng/mL.

Recorded concentration at 0.5 h of COc1c(C)c2c(c(O)c1C/C=C(\C)CCC(=O)O)C(=O)OC2 , please. 27.2

* * *

# TEST_METHOD_NOTES: Pharmacokinetics from total plasma levels (tMPA, tMPAG), LC-MS/MS
# Format: in vivo, human
# CONDITIONS_USED: human; total plasma level; pediatric renal transplant recipients (n = 20) on MMF (CellCept), steady state; 0–4 h post-dose; mean (range); read-out: Cmax
ASSAY_READOUT: Cmax (ng/mL)
Numbers only, in ng/mL.

Recorded Cmax of COc1c(C)c2c(c(O)c1C/C=C(\C)CCC(=O)O)C(=O)OC2 , please. 14400

* * *

# TEST_METHOD_NOTES: Pharmacokinetics from capillary blood collected with Mitra VAMS (vMPA, vMPAG)
# Assay type: in vivo, human
# CONDITIONS_USED: human, 2 h post-dose, n = 20, mean ± SD, read-out: C2 concentration
ASSAY_READOUT: concentration at 2 h (ng/mL)
Give bare numbers, in ng/mL.

Recorded concentration at 2 h of COc1c(C)c2c(c(O)c1C/C=C(\C)CCC(=O)O)C(=O)OC2 , please. 4430

* * *

# TEST_METHOD_NOTES: Pharmacokinetics from plasma unbound levels in plasma ultrafiltrate (fMPA, fMPAG)
# Type: in vivo, human
# CONDITIONS_USED: human, plasma ultrafiltrate (unbound level in EDTA plasma); free level in plasma ultrafiltrate; pediatric renal transplant recipients (n = 20) on MMF; mean (range)
ASSAY_READOUT: AUC(0-t)
Answer with the number, then the unit.

Recorded AUC(0-t) of COc1c(C)c2c(c(O)c1C/C=C(\C)CCC(=O)O)C(=O)OC2 , please. 276 ng·h/mL

* * *

# TEST_METHOD_NOTES: Pharmacokinetics from dried saliva collected with Mitra VAMS (vsMPA, vsMPAG)
# Assay type: in vivo, human
# CONDITIONS_USED: human; dried saliva (Mitra VAMS); 0.5 h post-dose; n = 20; mean ± SD; read-out: C0.5 concentration
ASSAY_READOUT: concentration at 0.5 h (ng/mL)
Answers are plain numbers, in ng/mL.

Recorded concentration at 0.5 h of COc1c(C)c2c(c(O)c1C/C=C(\C)CCC(=O)O)C(=O)OC2 , please. 27.7

* * *

# TEST_METHOD_NOTES: Pharmacokinetics from capillary blood collected with Mitra VAMS (vMPA, vMPAG)
# Format: in vivo, human
# CONDITIONS_USED: human, corrected to estimated capillary plasma concentration, pediatric renal transplant recipients (n = 20) on MMF, mean (range), read-out: Cmax
ASSAY_READOUT: Cmax

Recorded Cmax of COc1c(C)c2c(c(O)c1C/C=C(\C)CCC(=O)O)C(=O)OC2 , please. 12900 ng/mL
